Data provenance is patent US20240217968A1.

target_or_system: recombinant human Flag-tagged PARP7 (amino acids 456-657) (Homo sapiens, UniProt Q7Z3E1)
Construct: recombinant human Flag-tagged PARP7 (amino acids 456-657)
experiment_description: PARP7 biochemical DELFIA assay (auto-MARylation)
experimental_setup: DELFIA readout, IC50 class
Method: A suitable assay may be conducted using 10-30 nM PARP7 (amino acids 456-657), 2 μM biotin-NAD assay solution in 20 mM HEPES (pH 7.5), 100 mM NaCl, 2 mM DTT, 0.1% BSA (w/v), 0.02% Tween (v/v) assay buffer. MARylation may take place for 2-3 h at room temperature and may be detected using a dissociation-enhanced lanthanide fluorescence immunoassay (DELFIA) readout. […] Following incubation for 30 min at room temperature, fluorescence was read on either an Envision or Pherastar FS (Ex337 nm, Em620 nm).
parameter: IC50

- CC(COCCC(=O)N1CCN(c2ncccc2F)CC1)n1nc(C(F)(F)F)c2c(=O)[nH]ncc21 (single isomer, unassigned) [Compound 368]: 100 to 1000 nM
- O=C(c1cccc(Cn2nc(C(F)(F)F)c3c(=O)[nH]ncc32)c1)N1CCN(c2ncc(C(F)(F)F)cn2)CC1: ≤ 100 nM
- N#Cc1ccc(N2CCN(C(=O)c3cccc(Cc4cc(Cl)cc5c(=O)[nH]ncc45)c3)CC2)nc1: ≤ 100 nM
- O=C(CCOCCn1nc(C(F)(F)F)c2c(=O)[nH]ncc21)N1CCN(c2ncc(Cl)cn2)CC1: ≤ 100 nM

###

target_or_system: recombinant human Flag-tagged PARP7 (amino acids 456-657) (Homo sapiens)
Construct: recombinant human Flag-tagged PARP7 (amino acids 456-657)
Sequence (Q7Z3E1 456-657): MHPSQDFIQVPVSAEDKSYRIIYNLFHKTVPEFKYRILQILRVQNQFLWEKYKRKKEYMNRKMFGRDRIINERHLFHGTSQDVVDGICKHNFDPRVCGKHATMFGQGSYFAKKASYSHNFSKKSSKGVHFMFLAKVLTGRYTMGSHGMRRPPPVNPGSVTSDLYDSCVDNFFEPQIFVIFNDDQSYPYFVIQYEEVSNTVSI
experiment_description: PARP7 biochemical DELFIA assay (auto-MARylation)
experimental_setup: DELFIA readout, IC50 class
parameter: IC50

• N#Cc1ccc2nc(N3CCN(C(=O)CCOCCn4nc(C(F)(F)F)c5c(=O)[nH]ncc54)CC3)oc2c1 = ≤ 0.1 µM
• CC(COCC(=O)N1CCN(c2ncc(C(F)(F)F)cn2)CC1)Oc1cccc2c(=O)[nH]ncc12 (racemic) = 0.1 to 1 µM
• O=C1NCNc2c(CCOCCC(=O)N3CCN(c4ncc(C(F)(F)F)cn4)CC3)cccc21 = ≤ 0.1 µM
• CC(COCCC(=O)N1CCN(c2ncc(C(F)(F)F)s2)CC1)n1nc(C(F)(F)F)c2c(=O)[nH]ncc21 (single isomer, unassigned) [Compound 258] = ≤ 0.1 µM
• O=C(CCOCCn1nc(C(F)(F)F)c2c(=O)[nH]ncc21)N1CCN(c2ncc(C(F)(F)F)o2)CC1 = ≤ 0.1 µM
• O=C(CCCOC(c1cccc2c(=O)[nH]ncc12)C(F)(F)F)N1CCN(c2ncc(C(F)(F)F)cn2)CC1 (single isomer, unassigned) [Compound 222] = 0.1 to 1 µM
• O=C(CCOCCc1ccc(Cl)c2c(=O)[nH]ncc12)N1CCN(c2ncc(C(F)(F)F)cn2)CC1 = ≤ 0.1 µM
